# Tested on: MDA-MB-231 breast cancer cells
# test.method.notes: cell-exclusion migration assay (aqueous two-phase system patterning, 96-well plate)
# Format: cell-based, human
# run.conditions: MDA-MB-231 cells; six concentrations 5-200 μM for 18 hrs; BioDataFit software; read-out: IC50 for inhibition of cell migration
attribute.measured: pIC50
// returns pIC50 (minus log10 of molar concentration), number only

Per the reported MDA-MB-231 breast cancer cells data, Cc1ccc2c(c1)C(=O)C1(O)CCN(c3ccccc3)C1=N2 (racemic) [blebbistatin, (±)-blebbistatin] has pIC50 of 4.50
